Sourced from paper PMC6066186

# Test system: ATP production through oxidative phosphorylation in membrane vesicles derived from mycobacteria
# method-description: NADH-initiated ATP synthesis in mycobacterial membrane vesicles
# Assay type: biochemical
# run-conditions: read-out: IC50, inhibition of ATP synthesis, NADH added
assay-endpoint: IC50
Could you write the number and then its unit?

Consider `COc1nc2ccc(Br)cc2cc1[C@@H](c1ccccc1)[C@@](O)(CCN(C)C)c1cccc2ccccc12` . Its measured IC50 is 6.9 nM
